# Assay Target: human PD-L1 expressed on cell surface (human, UniProt Q9NZQ7 19-290)
# Sequence (Q9NZQ7 19-290 limits assumed): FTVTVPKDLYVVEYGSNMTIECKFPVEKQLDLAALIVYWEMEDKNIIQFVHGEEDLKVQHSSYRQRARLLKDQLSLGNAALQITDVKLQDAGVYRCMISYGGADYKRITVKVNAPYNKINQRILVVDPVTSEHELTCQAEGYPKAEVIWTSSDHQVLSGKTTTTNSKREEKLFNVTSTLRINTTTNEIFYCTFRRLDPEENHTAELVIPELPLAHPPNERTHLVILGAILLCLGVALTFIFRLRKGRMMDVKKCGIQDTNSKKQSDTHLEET
# Assay Method Text: cell-based or functional assay
Endpoint: Internalization (%), FACS, 2 µg/ml, 4 h
Numbers only here, please. The scale is %.

QUERY: I have this binder here, 74F4 (antibody, human IgG1, V domains shown) VH: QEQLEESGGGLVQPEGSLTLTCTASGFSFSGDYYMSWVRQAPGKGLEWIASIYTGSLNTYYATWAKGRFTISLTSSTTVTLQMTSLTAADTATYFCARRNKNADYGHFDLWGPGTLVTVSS VL: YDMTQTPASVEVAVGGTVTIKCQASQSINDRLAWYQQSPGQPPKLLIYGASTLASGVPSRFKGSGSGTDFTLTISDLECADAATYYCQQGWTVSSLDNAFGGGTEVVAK , and I need its recorded Internalization (%), FACS, 2 µg/ml, 4 h.
RESULT: 22

QUERY: Entry 57F11 (antibody, human IgG1, V domains shown) VH: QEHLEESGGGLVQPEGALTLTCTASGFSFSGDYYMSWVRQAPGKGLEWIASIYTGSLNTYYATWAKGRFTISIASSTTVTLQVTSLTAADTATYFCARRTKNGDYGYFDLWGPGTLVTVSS VL: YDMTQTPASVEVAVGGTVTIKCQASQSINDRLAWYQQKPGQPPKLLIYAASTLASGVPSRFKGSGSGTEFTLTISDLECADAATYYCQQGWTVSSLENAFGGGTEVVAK has what Internalization (%), FACS, 2 µg/ml, 4 h?
RESULT: 15.4
